Value source: the supplement of paper PMC10567573

Test: protein stability index of a GFP-peptide fusion (GPS, HEK-293T) (PSI 1-6); higher = more stable;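 further: 24-mer peptide tiles fused after GFP, lentivirally expressed, FACS-sorted into six equal bins by GFP/DsRed ratio, decoded by Illumina sequencing, PSI is the read-weighted mean bin number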
Details: treatment: MLN4924 1 uM, 8 h; c terminus: a fixed tail appended

{"residueSequence": "ARLQEPVTFRDVAVDFTQEEWGQL [ZNF8]", "protein stability index": 4.07}
{"residueSequence": "VEALQLSARWLEVLRTYLELVLCV [FBXO33]", "protein stability index": 2.46}
{"residueSequence": "SDWFNFHGHMCIAFELLGKNTFEF [CLK3]", "protein stability index": 2.94}
{"residueSequence": "TPSPADAKAPPTACYAGAAPAPSQ [CEBPB]", "protein stability index": 4.75}
{"residueSequence": "KVKTMEVTSVSIELEKNFSNFPRQ [TRIM39]", "protein stability index": 3.42}
{"residueSequence": "YTGYCWCVTPNGRPISGTAVAHKT [SMOC2]", "protein stability index": 2.51}
{"residueSequence": "TPLQQVSIEEILEEQRVEQQTKLE [LSM1]", "protein stability index": 5.34}
{"residueSequence": "INVYGNTALHIACYNGQDAVVNEL [ANKRD44]", "protein stability index": 2.23}
{"residueSequence": "RGLGLGGRRLKSPQAPDPEEEENR [FANCE]", "protein stability index": 5.58}
{"residueSequence": "DLEAKEVTPRTALLTWTEPPVRPA [TNXB]", "protein stability index": 4.53}
{"residueSequence": "GDLFESTPEVAAAPKPDAAPSIDL [SNAP91]", "protein stability index": 5.27}
{"residueSequence": "ESETRKAAKRMRLEIYQSSQDEPI [NOL4L]", "protein stability index": 4.65}
{"residueSequence": "HSQELTNEKEKALQAQVQYQQQHE [SASS6]", "protein stability index": 5.51}
{"residueSequence": "QWLRPHVSTKEQILDLLVLEQFLS [ZSCAN9]", "protein stability index": 2.22}
{"residueSequence": "PLSPPTAPDRATAVATASRLGPYV [TRIB3]", "protein stability index": 4.65}
{"residueSequence": "QIEERHQEKKRKFLESTDSFNNEL [SMARCE1]", "protein stability index": 5.08}
{"residueSequence": "NESALVKEKELSIELANIRDEVAF [MTUS2]", "protein stability index": 4.33}
{"residueSequence": "QGDKAIREQGPREQEPELSFLKQK [PBXIP1]", "protein stability index": 5.42}
{"residueSequence": "AEDKAAVERSKMIDRNLREDGEKA [GNAI1]", "protein stability index": 5.34}
{"residueSequence": "EMTTTDDLDFKHHNYKEMRQLMKV [CPXM2]", "protein stability index": 3.53}
{"residueSequence": "GQPLRPLVPDASKQRLMENTEDWR [PDLIM7]", "protein stability index": 4.72}
{"residueSequence": "RYFIADLPHLQDSFVDKLLDLMPR [INTS4]", "protein stability index": 2.27}
{"residueSequence": "RETLKRKVSGNRCASPVTGPGSKR [ESR2]", "protein stability index": 4.1}
{"residueSequence": "ANLKQVKKEDTEKERDLRDVGDWR [TNNI2]", "protein stability index": 4.96}
{"residueSequence": "TNEWEKRLSTSPVRLAARQEDAPM [EPB41L3]", "protein stability index": 4.51}
{"residueSequence": "EEVPEAYVDIHTGLSGSGVAFVCA [PYCR3]", "protein stability index": 2.66}
{"residueSequence": "NISCFFRLVDRDSVWGYDLGLRSL [MYORG]", "protein stability index": 2.95}
